Task for the reader: assign each of the following molecules its reported IC50.
tested on: ALK; assay: In vitro transcription-translation (IVTT) reporter assay, ALK test sequence; type: biochemical; details: HeLa S3 lysate, sfGFP/mCherry ratio, 2 hrs at 30° C.

>>> df
                               smilesstring  experimentalsystem  measured
0  COc1ccc(C[C@H]2NC[C@H](O)[C@H]2OC(=O)CC(C)(C)O)cc1                 ALK   < 10 µM
1  COc1ccc(C[C@H]2NC[C@H](O)[C@H]2OC(=O)c2ccc3onc(N)c3c2)cc1                 ALK   > 30 µM
2  COc1ccc(C[C@H]2NC[C@H](O)[C@H]2OC(=O)Cc2ccncc2)cc1                 ALK   < 10 µM
3  COc1ccc(C[C@H]2NC[C@H](O)[C@H]2OC(=O)[C@H]2CCCO2)cc1                 ALK   < 10 µM
4  COc1ccc(C[C@H]2NC[C@H](O)[C@H]2OC(=O)Cc2ccccn2)cc1                 ALK   < 10 µM

Kindly review the next molecule as well.
QUERY: So what's the measured IC50 for this one? C=C(F)C(=O)O[C@@H]1[C@@H](O)CN[C@@H]1Cc1ccc(OC)cc1
RESULT: > 30 µM

Hello, the source for this data is patent US20250091989A1, in case you need it.
